Origin of measurements: ChEMBL document CHEMBL1961873

The following compounds are shown together with reported inhibition values.
molecular target: Fibroblast growth factor receptor 3 (Homo sapiens) (UniProt P22607); conditions: at 1 µM;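 further: values reported are mean percent inhibition of FGFR3 activity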
Sequence (P22607 23-806 limits assumed): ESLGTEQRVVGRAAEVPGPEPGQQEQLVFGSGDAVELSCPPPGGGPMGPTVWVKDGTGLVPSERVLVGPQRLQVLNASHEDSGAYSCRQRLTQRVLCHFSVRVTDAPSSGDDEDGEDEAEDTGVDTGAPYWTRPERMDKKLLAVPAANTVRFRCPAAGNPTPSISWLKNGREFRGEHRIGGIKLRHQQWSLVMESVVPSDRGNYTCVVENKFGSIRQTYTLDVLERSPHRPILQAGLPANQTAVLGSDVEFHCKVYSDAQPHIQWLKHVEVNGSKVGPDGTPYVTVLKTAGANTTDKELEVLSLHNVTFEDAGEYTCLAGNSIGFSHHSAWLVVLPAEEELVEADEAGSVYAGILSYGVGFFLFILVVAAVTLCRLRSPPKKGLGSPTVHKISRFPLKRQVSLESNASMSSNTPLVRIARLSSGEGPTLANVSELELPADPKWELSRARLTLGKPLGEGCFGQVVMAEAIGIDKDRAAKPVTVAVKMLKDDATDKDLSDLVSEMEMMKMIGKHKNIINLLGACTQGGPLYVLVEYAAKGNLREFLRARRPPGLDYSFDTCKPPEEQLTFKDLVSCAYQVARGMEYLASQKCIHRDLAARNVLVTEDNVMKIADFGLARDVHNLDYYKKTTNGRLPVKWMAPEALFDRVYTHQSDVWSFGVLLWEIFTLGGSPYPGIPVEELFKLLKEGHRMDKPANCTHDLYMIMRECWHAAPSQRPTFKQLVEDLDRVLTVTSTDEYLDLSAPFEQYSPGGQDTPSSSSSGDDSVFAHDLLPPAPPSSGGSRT

Compound	inhibition [%]
COc1cc(N2CCN(C(C)C)CC2)ccc1Nc1nc(Nc2cccc(F)c2C(=O)O)c2cc[nH]c2n1	8.48
N#Cc1ccc2c(-c3ccnc(NC4CC4)n3)c(-c3ccc(F)cc3)nn2c1	1.06
NS(=O)(=O)c1ccc(N/N=C2\C(=O)Nc3cccc(CCc4ccncc4)c32)cc1	19.2
COC(=O)Nc1nc2cc(Oc3ccc(NC(=O)Nc4ccccc4)cc3)ccc2[nH]1	3.54
FC(F)(F)CNc1nccc(-c2cnn3ncccc23)n1	2.58
c1cnn2ncc(-c3ccnc(NCCCN4CCOCC4)n3)c2c1	1.83
CC1=C(C(=O)Nc2ccc3[nH]nc(C)c3c2)C(c2ccc(C(F)(F)F)cc2)CC(=O)N1 (stereo unspecified)	8.47
Cn1c(-c2nonc2N)nc2cnccc21	1.94
CC(C)c1ccc(-c2cc(-c3c[nH]nc3-c3ccccn3)ccn2)cc1	1.81
Cc1nnc(-c2cccc(-c3ccc(C(=O)NCC4CC4)cc3)c2)o1	6.22
CNC(=O)c1cncc(/C=C/c2ccccc2C)c1	4.39
